Items are presented alongside their recorded pest or weed control at 125 g/ha.
# Tested on: SORVU (Sorghum bicolor (L.) Moench ssp. Bicolor, or Sorghum vulgare Pers.)
# method_description: Test 1B glasshouse assay for herbicidal activity, pre-emergence
# Type: in vivo
# run_conditions: 480 h, 125 g/ha, 20 DAA, read-out: percentage phytotoxicity SORVU
Provide only the numeric value, understood in %.

Give pest or weed control at 125 g/ha for Cc1cc(C#CCl)cc(C)c1C1C(=O)C2CCC(C2)C1=O (stereo not shown) tested on SORVU (Sorghum bicolor (L.) Moench ssp. Bicolor, or Sorghum vulgare Pers.).
80

Give pest or weed control at 125 g/ha for CC#Cc1cc(C)c(C2C(=O)C3CCC(C3)C2=O)c(OC)c1 (stereo not shown) tested on SORVU (Sorghum bicolor (L.) Moench ssp. Bicolor, or Sorghum vulgare Pers.).
80

Give pest or weed control at 125 g/ha for CC#Cc1cc(C)c(C2=C(OC(C)=O)CC(c3ccccn3)CC2=O)c(C)c1 (stereo not shown) tested on SORVU (Sorghum bicolor (L.) Moench ssp. Bicolor, or Sorghum vulgare Pers.).
80

Give pest or weed control at 125 g/ha for CC#Cc1cc(C)c(C2C(=O)CC(CC3CCOCC3)CC2=O)c(C)c1 (stereo not shown) tested on SORVU (Sorghum bicolor (L.) Moench ssp. Bicolor, or Sorghum vulgare Pers.).
90
